# Lookup of reported melting point keyed by entry
MEASUREMENT_KIND: melting point

{"COMPOUND": "COC(=O)C1=C(C)NN=C(c2ccccc2)C1c1ccccc1Cl (stereo unspecified)", "ASSAY_VALUE": "198 °C"}
{"COMPOUND": "COc1ccc(C(=O)NCc2ccc(OCCN(C)C)cc2)cc1OC", "ASSAY_VALUE": "111 to 112 °C"}
{"COMPOUND": "COc1cc(C)nc(NCn2cncn2)n1", "ASSAY_VALUE": "191 to 193 °C"}
{"COMPOUND": "N#Cc1ccc(Oc2ccccc2Oc2ccc(C#N)cc2)cc1", "ASSAY_VALUE": "112 °C"}
{"COMPOUND": "Cc1c(-c2ccc(NC(=O)C(C)C)cc2)sc2ncc(C(=O)C(C)C)c(O)c12", "ASSAY_VALUE": "247 to 249 °C"}
{"COMPOUND": "Cc1cccc(C(=O)n2nc(Nc3cccc(OCC(=O)NCCN4CCOCC4)c3)nc2N)c1", "ASSAY_VALUE": "145 to 147 °C"}
{"COMPOUND": "COC1NC(=O)N(C2CCCCC2)C1=O (stereo unspecified)", "ASSAY_VALUE": "135 to 137 °C"}
{"COMPOUND": "CCOC(=O)c1c(Cl)nc2ccccc2c1CCl", "ASSAY_VALUE": "> 260 °C"}
{"COMPOUND": "NNC(=O)c1cnc2c(=O)[nH]c3ccccc3n2c1=O", "ASSAY_VALUE": "> 300 °C"}
{"COMPOUND": "Nc1ncc(-c2ccc(=O)[nH]n2)c(-c2ccc(Cl)c(Cl)c2)n1", "ASSAY_VALUE": "300 °C"}
{"COMPOUND": "NC[C@@H]1CN(c2nc3c(cc2F)c(=O)c(C(=O)O)cn3C2CC2)C[C@@H]1Cl (relative stereo)", "ASSAY_VALUE": "174 to 177 °C"}
{"COMPOUND": "CC(C)(C)OC(=O)Nc1cc(N2CCC(O)CC2)c(I)cc1[N+](=O)[O-]", "ASSAY_VALUE": "58 to 60 °C"}
{"COMPOUND": "CC(=O)Oc1cc2ccccc2cc1C(=O)O", "ASSAY_VALUE": "185 to 186 °C"}
{"COMPOUND": "Cc1cccc2nc3n(c(=O)c12)-c1ccc(F)cc1C3=O", "ASSAY_VALUE": "300 to 301 °C"}
{"COMPOUND": "CCCCCC(C)N(C=C1C(=O)OC(C)(CNc2cc(C(C)(C)C)c(O)c(C(C)(C)C)c2)OC1=O)Cc1ccc(CC(C)(C)C)s1 (stereo unspecified)", "ASSAY_VALUE": "184 to 185 °C"}
{"COMPOUND": "O=c1cc(O)c(Cl)cn1COCc1ccccc1", "ASSAY_VALUE": "165 to 167 °C"}
{"COMPOUND": "COc1cccc2c1OC(C)C2=O (stereo unspecified)", "ASSAY_VALUE": "60 to 61 °C"}
{"COMPOUND": "CCOC(=O)c1cn(C2CCCO2)c(=O)[nH]c1=O (stereo unspecified)", "ASSAY_VALUE": "125 °C"}
{"COMPOUND": "OC(CNCCCc1ccc(OCCOCCc2ccccc2)cc1)COc1ccccc1 (racemic)", "ASSAY_VALUE": "76 to 78 °C"}
{"COMPOUND": "COC(=O)c1cccc(N2CC(C)=CC2=O)c1", "ASSAY_VALUE": "87 to 89 °C"}
{"COMPOUND": "Cc1cc(F)ccc1-c1nc(NC2CCCCC2)nc2c1ccc(=O)n2-c1ccccc1F", "ASSAY_VALUE": "181 to 182 °C"}

src = a melting point compilation (Tetko et al.; mined from patent text by program, amines drawn as free bases though some values may be those of a salt)
